- Condition Set: in acetone, 283.15 K
Measured Metric: solubility (mole fraction)
# respond with the number and nothing more

Can you share its solubility (mole fraction)? I mean this molecule: O=C1C=CC(=O)N1c1ccccc1Br 0.108

====

- Condition Set: in isobutanol, 293.15 K
Measured Metric: solubility (mole fraction)
# respond with the number and nothing more

Can you share its solubility (mole fraction)? I mean this molecule: O=C1C=CC(=O)N1c1ccccc1Br 0.0117

====

- Condition Set: in water, 323.15 K
Measured Metric: solubility (mole fraction)
# respond with the number and nothing more

Can you share its solubility (mole fraction)? I mean this molecule: O=C1C=CC(=O)N1c1ccccc1Br 0.00119

====

- Condition Set: in DMSO, 313.15 K
Measured Metric: solubility (mole fraction)

Can you share its solubility (mole fraction)? I mean this compound: O=C1C=CC(=O)N1c1ccccc1Br 0.288

====

- Condition Set: in ethylene glycol, 283.15 K
Measured Metric: solubility (mole fraction)
# respond with the number and nothing more

Can you share its solubility (mole fraction)? I mean this compound: O=C1C=CC(=O)N1c1ccccc1Br 0.00451

====

- Condition Set: in DMSO, 318.15 K
Measured Metric: solubility (mole fraction)

Can you share its solubility (mole fraction)? I mean this molecule: O=C1C=CC(=O)N1c1ccccc1Br 0.327

====

- Condition Set: in cyclohexane, 303.15 K
Measured Metric: solubility (mole fraction)
# respond with the number and nothing more

Can you share its solubility (mole fraction)? I mean this compound: O=C1C=CC(=O)N1c1ccccc1Br 0.00487

====

- Condition Set: in acetone, 298.15 K
Measured Metric: solubility (mole fraction)
# respond with the number and nothing more

Can you share its solubility (mole fraction)? I mean this compound: O=C1C=CC(=O)N1c1ccccc1Br 0.164

====

- Condition Set: in NMP, 318.15 K
Measured Metric: solubility (mole fraction)
# respond with the number and nothing more

Can you share its solubility (mole fraction)? I mean this compound: O=C1C=CC(=O)N1c1ccccc1Br 0.372

====

- Condition Set: in isopropanol, 308.15 K
Measured Metric: solubility (mole fraction)
# respond with the number and nothing more

Can you share its solubility (mole fraction)? I mean this compound: O=C1C=CC(=O)N1c1ccccc1Br 0.0261

====

- Condition Set: in isobutanol, 308.15 K
Measured Metric: solubility (mole fraction)
# respond with the number and nothing more

Can you share its solubility (mole fraction)? I mean this compound: O=C1C=CC(=O)N1c1ccccc1Br 0.0204

====

- Condition Set: in ethylene glycol, 278.15 K
Measured Metric: solubility (mole fraction)
# respond with the number and nothing more

Can you share its solubility (mole fraction)? I mean this molecule: O=C1C=CC(=O)N1c1ccccc1Br 0.00377

====

- Condition Set: in isopropanol, 283.15 K
Measured Metric: solubility (mole fraction)

Can you share its solubility (mole fraction)? I mean this molecule: O=C1C=CC(=O)N1c1ccccc1Br 0.0104

====

- Condition Set: in cyclohexane, 308.15 K
Measured Metric: solubility (mole fraction)

Can you share its solubility (mole fraction)? I mean this compound: O=C1C=CC(=O)N1c1ccccc1Br 0.00597

====

- Condition Set: in methanol, 288.15 K
Measured Metric: solubility (mole fraction)
# respond with the number and nothing more

Can you share its solubility (mole fraction)? I mean this compound: O=C1C=CC(=O)N1c1ccccc1Br 0.0199

====

- Condition Set: in water, 288.15 K
Measured Metric: solubility (mole fraction)
# respond with the number and nothing more

Can you share its solubility (mole fraction)? I mean this molecule: O=C1C=CC(=O)N1c1ccccc1Br 0.000277

====

- Condition Set: in acetonitrile, 298.15 K
Measured Metric: solubility (mole fraction)
# respond with the number and nothing more

Can you share its solubility (mole fraction)? I mean this compound: O=C1C=CC(=O)N1c1ccccc1Br 0.0621

====

- Condition Set: in ethylene glycol, 288.15 K
Measured Metric: solubility (mole fraction)
# respond with the number and nothing more

Can you share its solubility (mole fraction)? I mean this compound: O=C1C=CC(=O)N1c1ccccc1Br 0.0055

====

- Condition Set: in n-propanol, 283.15 K
Measured Metric: solubility (mole fraction)

Can you share its solubility (mole fraction)? I mean this compound: O=C1C=CC(=O)N1c1ccccc1Br 0.00866

====

- Condition Set: in acetonitrile, 308.15 K
Measured Metric: solubility (mole fraction)
# respond with the number and nothing more

Can you share its solubility (mole fraction)? I mean this compound: O=C1C=CC(=O)N1c1ccccc1Br 0.0857

====

- Condition Set: in acetone, 303.15 K
Measured Metric: solubility (mole fraction)
# respond with the number and nothing more

Can you share its solubility (mole fraction)? I mean this molecule: O=C1C=CC(=O)N1c1ccccc1Br 0.19

====

- Condition Set: in ethylene glycol, 323.15 K
Measured Metric: solubility (mole fraction)
# respond with the number and nothing more

Can you share its solubility (mole fraction)? I mean this compound: O=C1C=CC(=O)N1c1ccccc1Br 0.0184

====

- Condition Set: in isobutanol, 318.15 K
Measured Metric: solubility (mole fraction)
# respond with the number and nothing more

Can you share its solubility (mole fraction)? I mean this compound: O=C1C=CC(=O)N1c1ccccc1Br 0.0276

====

- Condition Set: in ethanol, 308.15 K
Measured Metric: solubility (mole fraction)
# respond with the number and nothing more

Can you share its solubility (mole fraction)? I mean this compound: O=C1C=CC(=O)N1c1ccccc1Br 0.0341

====

- Condition Set: in water, 303.15 K
Measured Metric: solubility (mole fraction)

Can you share its solubility (mole fraction)? I mean this compound: O=C1C=CC(=O)N1c1ccccc1Br 0.000543

====

- Condition Set: in acetonitrile, 323.15 K
Measured Metric: solubility (mole fraction)
# respond with the number and nothing more

Can you share its solubility (mole fraction)? I mean this compound: O=C1C=CC(=O)N1c1ccccc1Br 0.139

====

- Condition Set: in ethanol, 313.15 K
Measured Metric: solubility (mole fraction)
# respond with the number and nothing more

Can you share its solubility (mole fraction)? I mean this compound: O=C1C=CC(=O)N1c1ccccc1Br 0.0411

====

- Condition Set: in DMF, 278.15 K
Measured Metric: solubility (mole fraction)
# respond with the number and nothing more

Can you share its solubility (mole fraction)? I mean this molecule: O=C1C=CC(=O)N1c1ccccc1Br 0.141

====

- Condition Set: in n-butanol, 288.15 K
Measured Metric: solubility (mole fraction)
# respond with the number and nothing more

Can you share its solubility (mole fraction)? I mean this molecule: O=C1C=CC(=O)N1c1ccccc1Br 0.00848

====

- Condition Set: in NMP, 293.15 K
Measured Metric: solubility (mole fraction)
# respond with the number and nothing more

Can you share its solubility (mole fraction)? I mean this molecule: O=C1C=CC(=O)N1c1ccccc1Br 0.179

====

- Condition Set: in DMSO, 298.15 K
Measured Metric: solubility (mole fraction)

Can you share its solubility (mole fraction)? I mean this molecule: O=C1C=CC(=O)N1c1ccccc1Br 0.177

====

- Condition Set: in ethylene glycol, 313.15 K
Measured Metric: solubility (mole fraction)
# respond with the number and nothing more

Can you share its solubility (mole fraction)? I mean this molecule: O=C1C=CC(=O)N1c1ccccc1Br 0.0134

====

- Condition Set: in methanol, 313.15 K
Measured Metric: solubility (mole fraction)
# respond with the number and nothing more

Can you share its solubility (mole fraction)? I mean this compound: O=C1C=CC(=O)N1c1ccccc1Br 0.0514

====

- Condition Set: in isobutanol, 283.15 K
Measured Metric: solubility (mole fraction)
# respond with the number and nothing more

Can you share its solubility (mole fraction)? I mean this molecule: O=C1C=CC(=O)N1c1ccccc1Br 0.00819

====

- Condition Set: in cyclohexane, 283.15 K
Measured Metric: solubility (mole fraction)
# respond with the number and nothing more

Can you share its solubility (mole fraction)? I mean this compound: O=C1C=CC(=O)N1c1ccccc1Br 0.00224

The reported numbers originate from BigSolDB 2.1.
